Cited source for all entries: paper doi:10.64898/2025.12.15.694443v1

experimental target: ARAF monomer complex (ARAF/MEK1 SASA) (Homo sapiens)
Sequence (P10398 282-579, one chain of several): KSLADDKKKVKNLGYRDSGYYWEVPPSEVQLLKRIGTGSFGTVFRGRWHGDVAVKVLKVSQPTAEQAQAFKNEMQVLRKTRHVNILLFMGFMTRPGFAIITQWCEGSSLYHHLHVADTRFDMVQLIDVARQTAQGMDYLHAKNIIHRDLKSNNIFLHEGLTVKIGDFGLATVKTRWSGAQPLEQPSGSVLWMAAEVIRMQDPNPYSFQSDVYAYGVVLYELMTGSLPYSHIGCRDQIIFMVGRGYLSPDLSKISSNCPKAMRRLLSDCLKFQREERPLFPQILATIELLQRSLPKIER
protocol summary: TR-FRET MEK phosphorylation assay, bell-shaped fit

- compound: "CN(C)CCOc1ccc(-c2nc(-c3ccncc3)c(-c3ccc4c(c3)CC/C4=N\\O)[nH]2)cc1 [SB590885]"
  IC50: "> 10 µM"

* * *

Entries annotated with measured IC50
experimental target: CRAF^SSDD (CRAF^SSDD/MEK1) (Homo sapiens, UniProt P04049, Y340D/Y341D)
Sequence (P04049 314-618 Y340D/Y341D): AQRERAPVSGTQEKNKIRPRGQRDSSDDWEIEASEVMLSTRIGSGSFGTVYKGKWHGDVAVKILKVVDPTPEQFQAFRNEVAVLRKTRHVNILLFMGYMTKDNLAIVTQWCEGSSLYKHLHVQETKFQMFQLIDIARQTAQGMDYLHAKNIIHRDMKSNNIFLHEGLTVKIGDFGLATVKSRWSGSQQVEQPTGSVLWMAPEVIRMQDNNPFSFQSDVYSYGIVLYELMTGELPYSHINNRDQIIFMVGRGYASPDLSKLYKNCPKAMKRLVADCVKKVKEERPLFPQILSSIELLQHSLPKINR
Sequence (Q02750 whole entry S218A/S222A partner): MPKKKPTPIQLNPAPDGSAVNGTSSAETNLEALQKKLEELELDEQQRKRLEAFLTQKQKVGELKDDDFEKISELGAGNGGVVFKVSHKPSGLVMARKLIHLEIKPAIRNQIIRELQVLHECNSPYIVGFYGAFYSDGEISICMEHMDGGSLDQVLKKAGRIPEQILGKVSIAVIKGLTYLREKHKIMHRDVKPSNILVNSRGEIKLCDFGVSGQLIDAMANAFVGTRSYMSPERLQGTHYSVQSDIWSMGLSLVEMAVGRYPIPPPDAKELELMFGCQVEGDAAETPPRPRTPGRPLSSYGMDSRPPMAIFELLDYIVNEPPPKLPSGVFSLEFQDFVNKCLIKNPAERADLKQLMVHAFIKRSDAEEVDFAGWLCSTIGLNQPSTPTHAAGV
protocol summary: TR-FRET MEK phosphorylation assay, bell-shaped fit

- entry smiles: "CN(C)CCOc1ccc(-c2nc(-c3ccncc3)c(-c3ccc4c(c3)CC/C4=N\\O)[nH]2)cc1"
  modifier: ">"
  IC50, µM: 10
- entry smiles: "Cc1ccc2c(Nc3cccc(Cl)c3F)nccc2c1NC(=O)c1csc2c(N)ncnc12"
  modifier: "="
  IC50, µM: 0.0346
- entry smiles: "Cc1ccc(NC(=O)c2ccnc(C(F)(F)F)c2)cc1-c1cc(OCCO)nc(N2CCOCC2)c1"
  modifier: "="
  IC50, µM: 0.0792
